Values compiled from patent US6518423B1.

melting point values for the molecules below.
parameter: melting point

>  <molecule>
N=C(Cc1ccc2c(c1)Nc1nccnc1S2)N1CCC(O)CC1

>  <parameter>
melting point

>  <measured>
265 to 267 °C

$$$$
>  <molecule>
CCc1ncnc2ncn(Cc3ccc4c(c3)Nc3nccnc3S4)c12

>  <parameter>
melting point

>  <measured>
> 275 °C

$$$$
>  <molecule>
c1cnc2c(n1)Nc1cc(CN3CCc4sccc4C3)ccc1S2

>  <parameter>
melting point

>  <measured>
182 to 184 °C

$$$$
>  <molecule>
O=C(O)COCC1CCN(Cc2ccc3c(c2)Nc2nccnc2S3)CC1

>  <parameter>
melting point

>  <measured>
146 to 148 °C

$$$$
>  <molecule>
O=C1CCN(Cc2ccc3c(c2)Nc2nccnc2S3)CC1

>  <parameter>
melting point

>  <measured>
186 to 188 °C

$$$$
>  <molecule>
CN(C)S(=O)(=O)CCC1CCN(Cc2ccc3c(c2)Nc2nccnc2S3)CC1

>  <parameter>
melting point

>  <measured>
188 to 190 °C

$$$$
>  <molecule>
CNS(=O)(=O)CCC1CCN(Cc2ccc3c(c2)Nc2nccnc2S3)CC1

>  <parameter>
melting point

>  <measured>
195 to 198 °C

$$$$
>  <molecule>
CCCN1c2ccccc2Nc2nccnc21

>  <parameter>
melting point

>  <measured>
190 to 192 °C

$$$$
>  <molecule>
O=C(NCc1ccc2c(c1)Nc1nccnc1S2)c1cccnc1

>  <parameter>
melting point

>  <measured>
243 to 245 °C (dec.)

$$$$
>  <molecule>
c1ccc2c(c1)CCCN2Cc1ccc2c(c1)Nc1nccnc1S2

>  <parameter>
melting point

>  <measured>
208 to 210 °C

$$$$
>  <molecule>
COC(=O)CNS(=O)(=O)NC1CCN(Cc2ccc3c(c2)Nc2nccnc2S3)CC1

>  <parameter>
melting point

>  <measured>
194 to 196 °C

$$$$
>  <molecule>
Cc1c(CO)ncn1Cc1ccc2c(c1)Nc1nccnc1S2

>  <parameter>
melting point

>  <measured>
> 270 °C (dec.)

$$$$
>  <molecule>
O=C(O)C1CC2(C1)C1CCCC2CN(Cc2ccc3c(c2)Nc2nccnc2S3)C1 (centres unmarked)

>  <parameter>
melting point

>  <measured>
98 to 101 °C

$$$$
>  <molecule>
O=S(=O)(NCCO)NC1CCN(Cc2ccc3c(c2)Nc2nccnc2S3)CC1

>  <parameter>
melting point

>  <measured>
164 to 166 °C

$$$$

###

Counter-ions that a name gives are not always drawn.
Recorded melting point values for a group of compounds are listed next.

>  <compound>
CN(C)CC#Cc1ccc2c(c1)Nc1nccnc1N2C

>  <melting point>
188 to 189 °C

$$$$
>  <compound>
O=C(O)c1ccc(CN2c3ccccc3Nc3nccnc32)cc1

>  <melting point>
253 to 255 °C

$$$$
>  <compound>
O=C([O-])C12CC[N+](Cc3ccc4c(c3)Nc3nccnc3S4)(CC1)CC2

>  <melting point>
229 to 230 °C

$$$$
>  <compound>
O=C(O)C(O)C1CCN(Cc2ccc3c(c2)Nc2nccnc2S3)CC1 (stereo not drawn)

>  <melting point>
98 to 99 °C

$$$$
>  <compound>
O=C(O)C1C2CN(Cc3ccc4c(c3)Nc3nccnc3S4)CC21 (stereo not drawn)

>  <melting point>
> 275 °C

$$$$
>  <compound>
c1cc(CCc2ccc3c(c2)Nc2nccnc2S3)ccn1

>  <melting point>
179 to 183 °C

$$$$
>  <compound>
CCOC(=O)CCCCSc1ncnc2ncn(Cc3ccc4c(c3)Nc3nccnc3S4)c12

>  <melting point>
175 to 178 °C

$$$$
>  <compound>
OCC#Cc1ncnc2c1ncn2Cc1ccc2c(c1)Nc1nccnc1S2

>  <melting point>
152 to 154 °C (dec.)

$$$$
>  <compound>
CN(CCCC(C)(C)C(=O)O)Cc1ccc2c(c1)Nc1nccnc1S2

>  <melting point>
200 to 202 °C

$$$$
>  <compound>
NCc1ncnc2c1ncn2Cc1ccc2c(c1)Nc1nccnc1S2 (as salt: oxalate)

>  <melting point>
97 to 104 °C (dec.)

$$$$
>  <compound>
Cc1cc(NCc2ccc3c(c2)Nc2nccnc2S3)c2ccccc2n1

>  <melting point>
290 to 300 °C

$$$$
>  <compound>
CC(C)Oc1ccc(NCc2ccc3c(c2)Nc2nccnc2S3)cn1

>  <melting point>
145 to 148 °C

$$$$
>  <compound>
N#CN=CN(Cc1ccc2c(c1)Nc1nccnc1S2)Cc1ccccn1

>  <melting point>
208 to 210 °C

$$$$
>  <compound>
OC(CCc1ccccc1)c1ccc2c(c1)Nc1nccnc1S2 (stereo not drawn)

>  <melting point>
156 to 158 °C

$$$$
>  <compound>
N/C(Cc1ccc2c(c1)Nc1nccnc1S2)=N\S(=O)(=O)C(F)(F)F

>  <melting point>
200 to 202 °C

$$$$
